# System name: XIAP (Homo sapiens, UniProt P98170)
# Construct: recombinant untagged XIAP, NT650-labelled (maleimide coupling)
# Sequence (P98170 whole entry): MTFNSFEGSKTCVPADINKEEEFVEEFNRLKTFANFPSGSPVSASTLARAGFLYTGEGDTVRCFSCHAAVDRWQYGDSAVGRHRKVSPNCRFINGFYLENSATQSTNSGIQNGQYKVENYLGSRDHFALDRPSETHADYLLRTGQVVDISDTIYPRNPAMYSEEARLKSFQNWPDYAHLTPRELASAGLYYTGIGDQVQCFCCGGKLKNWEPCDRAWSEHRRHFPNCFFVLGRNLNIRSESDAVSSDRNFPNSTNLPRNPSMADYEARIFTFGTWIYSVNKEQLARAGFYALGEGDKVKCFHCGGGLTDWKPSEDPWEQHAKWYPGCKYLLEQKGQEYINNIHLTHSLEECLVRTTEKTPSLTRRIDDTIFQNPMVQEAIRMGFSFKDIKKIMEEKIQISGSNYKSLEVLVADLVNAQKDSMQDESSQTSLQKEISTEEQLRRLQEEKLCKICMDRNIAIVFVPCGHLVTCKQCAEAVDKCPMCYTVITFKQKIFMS
# Protocol notes: microscale thermophoresis (MST)
Readout name: Kd (nM)
Dear colleague, please return just the value in nM, with no unit written.

Reported Kd (XIAP (Homo sapiens, UniProt P98170)) for entry COC(=O)c1[nH]c2ccc(Cl)cc2c1NC(=O)CN1CCN(Cc2ccccc2)CC1 is 348

---

# Test system: HCT116
# Protocol notes: cells
# Design: Sulforhodamine B growth/viability assay on tumour cell line panel (Oncolead), six dilutions, compound replenished daily
# Applied conditions: Homo sapiens, HCT-116; 72 h, SRB; read-out: Supplementary table 1 / A4 IC50
Readout name: IC50 (µM)
Numbers only here, please. The scale is µM.

Value of measured IC50 for the entry COC(=O)c1[nH]c2ccc(Cl)cc2c1NC(=O)CN1CCN(Cc2ccccc2)CC1 [A4] : 11.2

---

# Tested on: LOVO
# Protocol notes: cells
# Set-up: Sulforhodamine B growth/viability assay on tumour cell line panel (Oncolead), six dilutions, compound replenished daily
# Applied conditions: Homo sapiens, LoVo; 72 h, SRB; read-out: Supplementary table 1 / A4 IC50
Readout name: IC50 (µM)
Output spec: scalar in µM, unitless text.

Consider COC(=O)c1[nH]c2ccc(Cl)cc2c1NC(=O)CN1CCN(Cc2ccccc2)CC1 [A4] . Its measured IC50 is 5.96

---

# Test system: IGROV-1
# Protocol notes: cells
# Set-up: Sulforhodamine B growth/viability assay on tumour cell line panel (Oncolead), six dilutions, compound replenished daily
# Applied conditions: Homo sapiens, IGROV-1; 72 h, SRB; read-out: Supplementary table 1 / A4 IC50
# Procedure: Screening of 94 different cancer cell lines spanning over 18 human tissues was performed by Oncolead Ltd. The company used an identical platform to the one NIH, NCI-60 uses to assess the effect of a compound on the viability of a variety of tumour cell lines. […] Cells were then stained with a dye (sulforhodamine B) that dyes all proteins purple, which is measured by a plate reader and provides quantification of living cells. […]
Readout name: pIC50
Entry type: numeric. Quantity: pIC50, the -log10 of concentration in molar units.

Value of pIC50 reported for the compound COC(=O)c1[nH]c2ccc(Cl)cc2c1NC(=O)CN1CCN(Cc2ccccc2)CC1 is 5.09
